Assay: qHTS Assay for inhibitors of the human cytomegalovirus (HCMV); further: on the % scale 0 is the no-effect control and ±100 the full control effect
Details: HFF cells, HCMV-luciferase reporter, 72 h; at 57.5 µM; active compounds read low
In all, about 410,000 compounds went through this assay and about 18,000 (4.4%) were called active. Not shown: some 7% with an inconclusive outcome. The sample holds actives, similar compounds and a random draw of the others, so the mix is not that of the screen.
endpoint label: activity change, negative = inhibition (%)

>>> print(df.to_string())
                                    compound                          endpoint_label  value_reported
 0  COc1ccccc1-c1noc(-c2ccc(NCc3ccccc3)c([N+](=O)[O-])c2)n1  activity change, negative = inhibition           0.104
 1  CCC(=O)N1CCc2cc(S(=O)(=O)NC(C(=O)Nc3ccc(C(C)=O)cc3)C(C)C)ccc21 (stereo unspecified)  activity change, negative = inhibition            7.35
 2  CCc1nnc(NC(=O)C2CCCN2S(=O)(=O)c2ccccc2)s1 (stereo unspecified)  activity change, negative = inhibition           -60.4
 3  Cc1ccc(CCNC(=O)c2ccc3c(c2)nc2n3CCC(C)C2)cc1 (stereo unspecified)  activity change, negative = inhibition            14.9
 4  COc1ccccc1C(=O)Nn1c(-c2cccs2)nc2ccccc2c1=O  activity change, negative = inhibition           -71.7
 5  CN(c1ccccc1)S(=O)(=O)c1cc(C(=O)Nc2nc3ccccc3[nH]2)ccc1Cl  activity change, negative = inhibition           -61.3
 6  Cc1ccc(CN2COc3cc(C)c4c(oc(=O)c5ccccc54)c3C2)cc1  activity change, negative = inhibition            8.87
 7  CCOC(=O)CSC1=C(C#N)C(c2sccc2C)CC(=O)N1 (stereo unspecified)  activity change, negative = inhibition           -85.4
 8  COc1ccc(-c2cc(=O)oc3cc(OC(C)C(=O)Nc4ccc(CN5CCOCC5)cc4)ccc23)cc1 (stereo unspecified)  activity change, negative = inhibition           -70.7
 9  COc1cccc(C(=O)NCc2ccc3c(c2)CCN3C(=O)c2ccncc2)c1  activity change, negative = inhibition            8.47
10           Cn1nccc1/C=N\NC(=O)c1ccc(Cl)cc1  activity change, negative = inhibition            45.6
11  O=C(CSc1ncc(CO)n1Cc1ccc(Cl)cc1)NCc1ccc(F)cc1  activity change, negative = inhibition           0.963
12  Cc1ccsc1C1C(C#N)=C(N)OC2=C1C(=O)CC(C)C2 (stereo unspecified)  activity change, negative = inhibition            68.7
13  CCc1cc2c(cc3c(=O)n(CC(=O)N4CCN(c5cc(Cl)ccc5C)CC4)nc(CC)n32)s1  activity change, negative = inhibition            12.7
14  COc1ccc(NC(=O)CSC2=Nc3ccccc3C3=NC(CC(=O)NCc4ccccc4OC)C(=O)N23)cc1Cl (stereo unspecified)  activity change, negative = inhibition            17.7
15  CN(c1ccccc1)S(=O)(=O)c1cc(C(=O)N2CCN(c3ncccn3)CC2)ccc1Cl  activity change, negative = inhibition           -61.7
16  CCc1ccc(C(=O)C(C)OC(=O)CN2C(=O)NC3(CCCC3)C2=O)cc1 (stereo unspecified)  activity change, negative = inhibition           -31.9
17  O=C(Nc1cccc(-c2cscn2)c1)C1CCN(Cc2ccsc2)CC1  activity change, negative = inhibition           -33.6
18  COc1ccc(C(=O)N2CCN(c3ncccn3)CC2)cc1S(=O)(=O)N1CCOCC1  activity change, negative = inhibition              63
19  Cc1ccc(C(=O)NC23CC4CC(CC(C4)C2)C3)c(Cl)c1  activity change, negative = inhibition            20.9
20  CN1CCC(N(C)C(=O)c2ccc(Cl)c(S(=O)(=O)Nc3ccc(Cl)cc3)c2)CC1  activity change, negative = inhibition           -3.23
21  COc1ccccc1N1CCN(C(=O)c2ccc(Cl)c(S(=O)(=O)N3CCCC3)c2)CC1  activity change, negative = inhibition           -64.9
22      O=C1N=C(N2CCOCC2)S/C1=C\C=C/c1ccccc1  activity change, negative = inhibition            -102
23  COc1cc(C(=O)Nn2c(CC(C)C)nc3ccccc3c2=O)cc(OC)c1OC  activity change, negative = inhibition            36.7
24  CC(=O)c1cc(CN2CCC(C(=O)Nc3cccc(-c4cscn4)c3)CC2)cs1  activity change, negative = inhibition           -30.7
25  COc1ccc(C2Nc3ccccc3C(=O)N2c2ccc(Cl)cc2)cc1Cn1cc([N+](=O)[O-])cn1 (stereo unspecified)  activity change, negative = inhibition            8.39
